# credit: the RNAGym collection of RNA variant scans (doi:10.7554/elife.80360)

B1: HDV Ribozyme (parent)
chain: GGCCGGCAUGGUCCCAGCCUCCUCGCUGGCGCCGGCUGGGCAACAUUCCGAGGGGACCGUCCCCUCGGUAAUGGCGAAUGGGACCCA

variants of: B1; experiment: self-cleavage, relative activity (ratio to wild type); higher = more cleavage; co-transcriptional
Recorded Endpoint: self-cleavage
Answers are plain numbers.

GGCCGGCAUGGUCCCAGCCUCCUCGCUGGCGCCGGCUGGGCAACAUUCCGAGGGGACCGUCCCCUCGGUAAGGGCGAAUGAGACCCA [U72G G81A]; 0.302
GGCCGGCAUGGUCCCAGCCUCCUCGCUGUCGCCGGCUGGGCAACAUUCCGAGGGGACCGUCCCCUCGGUAAUGGCGCAUGGGACCCA [G29U A77C]; 0.13
GGCCGGCAUGGUCCCAGCCACCUCGCUGGCGCCGGCUGGGCAACAUUCCGAGGGGACCGUCCCCUCGGUAAUGGCGAAUGGGCCCCA [U20A A83C]; 0
GGGCGGCAUGGUCCCAGCCUCCUCGCUGGCGCCGGCUGGGCAACAUUCCGAGGGGACCGUCCCCUCGGUAAUGGCGAAUGGGCCCCA [C3G A83C]; 0.191
GGCCGGCAUGGUCCCAGCCUCCUCGCCGGCGCCGGCUGGGCAACAUUCCGAGGGGACCGUCCCCUCUGUAAUGGCGAAUGGGACCCA [U27C G67U]; 0.798
GGCCGGCAUGGUCCCAGCCUCCGCGCUGGCGCCGGCUGGGCAACAUUCCGAGGGGACCGUCCCAUCGGUAAUGGCGAAUGGGACCCA [U23G C64A]; 0.89
GGCCGGCAUGGCCCCAGCCUCUUCGCUGGCGCCGGCUGGGCAACAUUCCGAGGGGACCGUCCCCUCGGUAAUGGCGAAUGGGACCCA [U12C C22U]; 0.231
GGCCGGCAUGGUCCCAGCCUCCUCUCUGGCGCCGGCUGCGCAACAUUCCGAGGGGACCGUCCCCUCGGUAAUGGCGAAUGGGACCCA [G25U G39C]; 0.0773
GGCCGGCAUGGUCCCAGCCUCCUCGCUGGCGCCGACUGGGCAACAUUCCGCGGGGACCGUCCCCUCGGUAAUGGCGAAUGGGACCCA [G35A A51C]; 0.467
GGCCGGCAUGAUCCCAGCCUCCUCGCUGGCGCCGGCUGGGCAUCAUUCCGAGGGGACCGUCCCCUCGGUAAUGGCGAAUGGGACCCA [G11A A43U]; 0.198

// for each variant below, give its self-cleavage
1. GGCCGGCAUGGUCCCAGCUUCCUCGCUGGCGCCGGCUGGGCAACAUACCGAGGGGACCGUCCCCUCGGUAAUGGCGAAUGGGACCCA [C19U U47A]
2. GGCCGGCAUGGUCCCAGCCUCCUCGCUGGCGCCUGCUGGGCAACAUUCCGAGGGGACAGUCCCCUCGGUAAUGGCGAAUGGGACCCA [G34U C58A]
3. GGCCGGCAUGGUCCCAGCCACCUCGCUGGCGCCGGCUGGGCAACAUUCCGAGGGGACCGUCCCCUCGGUAAUGGCGAAUGGUACCCA [U20A G82U]
4. GGCCGGCAUGGUCCCAGCCUCCUCGCUGGCGCCGGCUGGGCAACAUUCCGAGGGGAGCGUCCCCUCGGUAAUGGCGAAUGGGCCCCA [C57G A83C]
5. GGCCGGCGUGGUCCCAGCCUCCUCGCUGGCGCCGGCUCGGCAACAUUCCGAGGGGACCGUCCCCUCGGUAAUGGCGAAUGGGACCCA [A8G G38C]
6. GGCCGGCAUGGUUCCAGCCUCCUCGCUGGCGCCGGCUGGGCAACAUUCCGAGGGGACCGUCCCCUCGGUAAUGGCGAAUGGGACCCC [C13U A87C]
7. GGCCGGCAUGGUCCCAGCCUCCUCGCUGGCGCCUGCUGGGCAACAUUCCGAGGGGACCGUCCCCUCGGUAAUGGCGAAUGGGACCCU [G34U A87U]

Data returned:
0.191
0.111
0.0875
0.554
0.138
0.647
0.141
